Note to self: these molecules have IC50 reported for Aromatase (Homo sapiens, UniProt P11511) in various publications.
# TESTED_SYSTEM: Aromatase (Homo sapiens, UniProt P11511)
# Sequence (P11511 whole entry): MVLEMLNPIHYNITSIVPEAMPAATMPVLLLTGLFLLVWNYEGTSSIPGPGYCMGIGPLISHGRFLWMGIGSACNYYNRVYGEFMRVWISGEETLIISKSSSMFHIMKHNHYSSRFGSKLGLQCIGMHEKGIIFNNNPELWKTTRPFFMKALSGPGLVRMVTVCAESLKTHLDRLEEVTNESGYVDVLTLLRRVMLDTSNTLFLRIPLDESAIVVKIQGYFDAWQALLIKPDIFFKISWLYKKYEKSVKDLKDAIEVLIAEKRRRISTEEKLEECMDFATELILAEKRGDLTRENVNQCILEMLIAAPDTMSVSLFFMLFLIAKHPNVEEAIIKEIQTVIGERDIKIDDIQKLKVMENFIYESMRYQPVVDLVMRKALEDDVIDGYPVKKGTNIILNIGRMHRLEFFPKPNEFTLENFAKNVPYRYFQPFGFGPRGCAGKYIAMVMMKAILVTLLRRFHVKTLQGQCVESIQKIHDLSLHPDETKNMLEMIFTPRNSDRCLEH

>  <SMI>
O=c1ccc2c(o1)CCCC2

>  <QUANTITY_KIND>
IC50

>  <VALUE>
> 266 µM

$$$$
>  <SMI>
COc1cccc2c(C)cc(=O)[nH]c12

>  <QUANTITY_KIND>
IC50

>  <VALUE>
> 106 µM

$$$$
>  <SMI>
Oc1ccc2ccc(-c3cccnc3)c(Cl)c2c1F

>  <QUANTITY_KIND>
IC50

>  <VALUE>
> 2 µM

$$$$

Consider the additional molecule presented here.
Req: Find the recorded IC50 belonging to Cc1cc(=O)n(C)c2ccccc12 and report it.
Resp: > 116 µM
